Every entry's value here was drawn from paper PMC4042160.

Target: LRRK2 phospho-Ser935 (Homo sapiens)
Construct: expressed in transfected cells
Assay: Cellular LRRK2 phosphoserine 935 dephosphorylation spotblot assay in SH-SY5Y cells stably expressing 3xFlag-LRRK2
Assay type: cell-based
Conditions: SH-SY5Y stably overexpressing 3flag-LRRK2 WT; N ≥ 5; read-out: IC50 of phosphorylation at LRRK2 Ser935 (cellular spotblot)
assayReadout: IC50 (nM)
Field format: number, assumed nM, no unit text.

Which IC50 is listed for `COc1cc(C(=O)N2CCC(N3CCN(C)CC3)CC2)ccc1Nc1ncc2c(n1)N(C)c1ccccc1C(=O)N2C` ?
239

* * *

Biological target: GST-tagged truncated LRRK2 containing residues 970 to 2527 (Homo sapiens, UniProt Q5S007)
Construct: GST-tagged truncated LRRK2 containing residues 970 to 2527 (Life Technologies); purchased Life Technologies
Sequence (Q5S007 970-2527): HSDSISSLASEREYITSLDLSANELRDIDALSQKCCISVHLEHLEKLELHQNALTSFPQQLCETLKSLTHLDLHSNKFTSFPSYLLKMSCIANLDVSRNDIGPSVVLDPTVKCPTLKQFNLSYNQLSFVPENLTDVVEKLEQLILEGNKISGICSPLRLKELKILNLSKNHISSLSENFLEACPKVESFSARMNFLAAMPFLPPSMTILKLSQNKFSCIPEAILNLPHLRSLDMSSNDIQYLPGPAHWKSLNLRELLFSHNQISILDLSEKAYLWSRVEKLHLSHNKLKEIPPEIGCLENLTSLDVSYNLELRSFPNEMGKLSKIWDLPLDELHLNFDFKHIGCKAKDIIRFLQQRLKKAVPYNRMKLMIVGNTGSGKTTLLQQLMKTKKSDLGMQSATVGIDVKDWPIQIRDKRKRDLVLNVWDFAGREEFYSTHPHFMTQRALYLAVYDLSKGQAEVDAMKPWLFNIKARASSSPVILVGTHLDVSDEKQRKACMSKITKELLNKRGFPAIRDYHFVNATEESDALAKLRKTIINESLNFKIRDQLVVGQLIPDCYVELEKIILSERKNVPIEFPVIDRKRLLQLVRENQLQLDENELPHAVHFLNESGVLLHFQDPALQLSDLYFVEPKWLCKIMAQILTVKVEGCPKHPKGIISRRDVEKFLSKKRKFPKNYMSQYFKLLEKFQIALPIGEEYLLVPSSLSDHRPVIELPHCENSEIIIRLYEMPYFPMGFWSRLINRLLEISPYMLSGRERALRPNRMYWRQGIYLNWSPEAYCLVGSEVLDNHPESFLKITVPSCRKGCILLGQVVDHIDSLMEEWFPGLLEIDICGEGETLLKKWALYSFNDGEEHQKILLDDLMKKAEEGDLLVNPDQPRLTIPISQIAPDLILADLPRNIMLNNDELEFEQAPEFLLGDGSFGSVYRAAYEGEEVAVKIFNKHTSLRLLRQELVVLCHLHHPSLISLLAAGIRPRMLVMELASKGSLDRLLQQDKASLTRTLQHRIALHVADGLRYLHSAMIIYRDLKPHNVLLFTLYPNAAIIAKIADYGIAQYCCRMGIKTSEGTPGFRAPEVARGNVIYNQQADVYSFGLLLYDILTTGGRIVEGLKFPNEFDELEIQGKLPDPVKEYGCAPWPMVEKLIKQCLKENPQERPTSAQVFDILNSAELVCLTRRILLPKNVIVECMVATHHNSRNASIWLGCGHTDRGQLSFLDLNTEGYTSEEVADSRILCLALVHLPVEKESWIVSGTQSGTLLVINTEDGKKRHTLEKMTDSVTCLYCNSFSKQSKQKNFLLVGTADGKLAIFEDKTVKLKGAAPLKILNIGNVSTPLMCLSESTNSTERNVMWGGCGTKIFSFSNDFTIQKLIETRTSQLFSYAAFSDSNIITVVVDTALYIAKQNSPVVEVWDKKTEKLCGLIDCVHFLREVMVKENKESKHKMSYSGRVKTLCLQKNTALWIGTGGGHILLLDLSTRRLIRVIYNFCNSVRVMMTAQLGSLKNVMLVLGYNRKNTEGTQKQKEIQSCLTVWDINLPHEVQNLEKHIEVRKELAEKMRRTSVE
Test: In vitro LRRKtide peptide-substrate kinase assay, single dose testing (10 μM)
Format: biochemical
Details: LRRKtide assay @ 10 μM inhibitor; GST-LRRK2 970-2527; 10 μM ATP; mean, N = 3; solvent control = 100%
Each entry below lists one item and its recorded % LRRKtide phosphorylation relative to solvent value.
Field format: number, assumed %, no unit text.

Here are 8 compounds together with their reported answers.
compound: Cc1nc(-c2ccccc2)c(-c2ccncc2)o1 [SC-68376]
quantitativeResult: 48.07
//
compound: O=C1NC(=O)C(c2cn(CCCO)c3ncccc23)=C1c1cnccn1 [GSK-3b inhibitor XI]
quantitativeResult: 32.34
//
compound: Cc1ccc(S(=O)(=O)/C=C/C#N)cc1 [BAY 11-7082]
quantitativeResult: 132.94
//
compound: Nc1ncnc2n[nH]c(Nc3ccc(F)cc3)c12 [MNK1 inhibitor]
quantitativeResult: 12.59
//
compound: CCOc1cc2ncnc(Nc3cccc(Br)c3)c2cc1OCC [Compound 56]
quantitativeResult: 4.52
//
compound: Cc1cc(C)c(/C=C2\C(=O)Nc3ccccc32)[nH]1 [VEGF receptor 2 kinase inhibitor III]
quantitativeResult: 2.19
//
compound: COc1cc(OC)c(C=C2C(O)=Nc3ccccc32)c(OC)c1 [IC261]
quantitativeResult: 89.62
//
compound: N#C/C(=C(/N)Sc1ccc(N)cc1)c1ccccc1C(F)(F)F [MEK 1/2 inhibitor]
quantitativeResult: 61.26

Which % LRRKtide phosphorylation relative to solvent is listed for O=C(c1cc2cc(O)ccc2[nH]1)c1cc2cc(O)ccc2[nH]1 [Flt-3 inhibitor II] ?
2.16

Which % LRRKtide phosphorylation relative to solvent is listed for Cc1[nH]c(/C=C2\C(=O)Nc3ccc(S(=O)(=O)N(C)c4cccc(Cl)c4)cc32)c(C)c1C(=O)N1CCN(C)CC1 [Met kinase inhibitor] ?
2.05

Which % LRRKtide phosphorylation relative to solvent is listed for CO[C@H]1C[C@@H]2CC[C@@H](C)[C@@](O)(O2)C(=O)C(=O)N2CCCC[C@H]2C(=O)O[C@H]([C@H](C)C[C@@H]2CC[C@@H](O)[C@H](OC)C2)CC(=O)[C@H](C)/C=C(\C)[C@@H](O)[C@@H](OC)C(=O)[C@H](C)C[C@H](C)/C=C/C=C/C=C/1C [Rapamycin] ?
101.20

Which % LRRKtide phosphorylation relative to solvent is listed for `COc1cc2c(cc1OC)-c1[nH]nc(Nc3cccc(F)c3)c1C2` ?
23.12

Which % LRRKtide phosphorylation relative to solvent is listed for O=C1Nc2ccccc2/C1=C1/Nc2ccccc2/C1=N\OCC(O)CO (centres unmarked) [Indirubin derivative E804] ?
2.23

Which % LRRKtide phosphorylation relative to solvent is listed for Cn1c2ccccc2c2c3c(c4c5ccccc5n(CCC#N)c4c21)CNC3=O [Gö 6976] ?
5.79

Which % LRRKtide phosphorylation relative to solvent is listed for O=C1NC(=O)/C(=C/c2ccc3nccnc3c2)S1 [PI 3-Kg inhibitor] ?
62.51

Which % LRRKtide phosphorylation relative to solvent is listed for COc1ccc(C(=O)Nc2sc3c(c2C(N)=O)CCCC3)cc1OC [Flt-3 inhibitor] ?
38.91

Which % LRRKtide phosphorylation relative to solvent is listed for COc1cc2ncnc(Nc3cccc(Cl)c3)c2cc1OC [AG 1478] ?
5.72

* * *

Target: LRRK2 phospho-Ser935 (Homo sapiens, UniProt Q5S007)
Construct: expressed in transfected cells
Sequence (Q5S007 whole entry): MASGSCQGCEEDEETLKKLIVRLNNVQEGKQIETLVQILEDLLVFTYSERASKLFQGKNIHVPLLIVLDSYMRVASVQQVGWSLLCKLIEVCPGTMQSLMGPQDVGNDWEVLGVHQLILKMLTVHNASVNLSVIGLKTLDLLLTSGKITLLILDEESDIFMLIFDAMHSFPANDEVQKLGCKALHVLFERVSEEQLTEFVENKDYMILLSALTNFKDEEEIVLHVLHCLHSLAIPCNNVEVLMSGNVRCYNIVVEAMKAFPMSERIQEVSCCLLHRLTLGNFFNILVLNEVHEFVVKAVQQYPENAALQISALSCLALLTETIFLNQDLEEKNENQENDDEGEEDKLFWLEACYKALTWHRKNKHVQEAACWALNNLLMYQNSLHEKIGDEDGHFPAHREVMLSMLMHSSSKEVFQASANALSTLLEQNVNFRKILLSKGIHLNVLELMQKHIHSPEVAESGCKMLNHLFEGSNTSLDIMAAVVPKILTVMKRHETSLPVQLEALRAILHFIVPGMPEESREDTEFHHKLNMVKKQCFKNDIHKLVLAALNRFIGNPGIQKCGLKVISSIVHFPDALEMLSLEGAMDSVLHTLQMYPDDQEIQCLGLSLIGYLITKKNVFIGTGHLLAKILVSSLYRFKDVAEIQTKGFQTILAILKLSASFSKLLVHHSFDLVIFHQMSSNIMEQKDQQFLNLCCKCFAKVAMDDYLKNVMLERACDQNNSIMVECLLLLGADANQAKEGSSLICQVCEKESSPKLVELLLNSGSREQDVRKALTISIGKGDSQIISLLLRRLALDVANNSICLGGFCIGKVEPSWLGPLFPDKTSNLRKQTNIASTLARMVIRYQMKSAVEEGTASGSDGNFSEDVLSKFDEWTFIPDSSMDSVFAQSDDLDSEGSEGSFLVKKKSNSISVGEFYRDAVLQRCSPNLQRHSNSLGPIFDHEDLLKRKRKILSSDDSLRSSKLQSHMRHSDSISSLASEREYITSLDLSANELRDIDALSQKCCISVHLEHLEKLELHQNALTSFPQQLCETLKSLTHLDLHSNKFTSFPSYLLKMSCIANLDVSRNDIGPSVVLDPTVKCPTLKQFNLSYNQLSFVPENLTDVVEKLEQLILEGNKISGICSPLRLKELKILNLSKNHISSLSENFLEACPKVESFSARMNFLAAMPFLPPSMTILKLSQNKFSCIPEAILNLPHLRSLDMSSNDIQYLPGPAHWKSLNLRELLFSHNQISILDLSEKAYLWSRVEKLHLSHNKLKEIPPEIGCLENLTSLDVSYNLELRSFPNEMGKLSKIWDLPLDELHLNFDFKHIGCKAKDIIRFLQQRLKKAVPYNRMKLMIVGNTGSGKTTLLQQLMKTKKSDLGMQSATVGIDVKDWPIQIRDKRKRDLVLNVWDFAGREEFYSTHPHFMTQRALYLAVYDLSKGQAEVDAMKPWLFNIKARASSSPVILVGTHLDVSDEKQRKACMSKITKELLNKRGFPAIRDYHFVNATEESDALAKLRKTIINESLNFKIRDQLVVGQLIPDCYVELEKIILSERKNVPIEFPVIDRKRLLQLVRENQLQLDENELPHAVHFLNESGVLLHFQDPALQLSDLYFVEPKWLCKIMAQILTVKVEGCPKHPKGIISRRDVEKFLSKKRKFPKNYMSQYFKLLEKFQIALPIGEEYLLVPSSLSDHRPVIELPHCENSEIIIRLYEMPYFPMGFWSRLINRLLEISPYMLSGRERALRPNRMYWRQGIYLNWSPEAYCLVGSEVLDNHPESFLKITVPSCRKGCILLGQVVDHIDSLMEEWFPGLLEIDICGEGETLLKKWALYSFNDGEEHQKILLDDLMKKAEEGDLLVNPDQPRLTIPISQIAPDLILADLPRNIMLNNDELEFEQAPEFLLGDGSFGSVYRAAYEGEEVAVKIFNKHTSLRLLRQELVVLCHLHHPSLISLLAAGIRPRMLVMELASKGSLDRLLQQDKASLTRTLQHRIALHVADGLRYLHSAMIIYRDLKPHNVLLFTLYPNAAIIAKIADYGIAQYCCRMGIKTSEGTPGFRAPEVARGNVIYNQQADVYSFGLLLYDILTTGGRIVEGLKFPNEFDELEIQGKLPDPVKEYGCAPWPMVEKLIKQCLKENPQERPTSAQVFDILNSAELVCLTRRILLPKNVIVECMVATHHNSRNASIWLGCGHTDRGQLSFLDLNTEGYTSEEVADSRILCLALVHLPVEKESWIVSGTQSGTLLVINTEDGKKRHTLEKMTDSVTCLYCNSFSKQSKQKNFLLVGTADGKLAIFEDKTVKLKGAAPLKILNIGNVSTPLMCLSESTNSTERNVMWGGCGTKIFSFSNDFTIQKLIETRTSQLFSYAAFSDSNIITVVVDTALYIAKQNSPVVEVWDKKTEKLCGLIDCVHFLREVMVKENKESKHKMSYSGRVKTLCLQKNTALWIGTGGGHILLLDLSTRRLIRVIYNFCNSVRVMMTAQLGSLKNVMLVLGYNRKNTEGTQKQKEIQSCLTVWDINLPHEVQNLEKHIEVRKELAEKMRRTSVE
Experiment: Cellular LRRK2 phosphoserine 935 dephosphorylation spotblot assay in SH-SY5Y cells stably expressing 3xFlag-LRRK2
Type: cell-based
Settings: 5 μM, 2 h, SH-SY5Y
assayReadout: dephosphorylation of LRRK2 (Ser935)

Here are 3 compounds together with their reported answers.
compound: N#C/C(=C/c1ccc(O)c(O)c1)C(=O)NCc1ccccc1 [AG490]
testedOn: LRRK2 phospho-Ser935 (Homo sapiens, UniProt Q5S007)
dephosphorylation of LRRK2 (Ser935): 49.32%
//
compound: O=C(c1ccccc1)c1ccc(N2CCOCC2)cc1O [DNA-PK inhibitor V]
testedOn: LRRK2 phospho-Ser935 (Homo sapiens, UniProt Q5S007)
dephosphorylation of LRRK2 (Ser935): ~ 50%
//
compound: O=c1cc(N2CCNCC2)oc2c(-c3ccccc3)cccc12 [LY 303511]
testedOn: LRRK2 phospho-Ser935 (Homo sapiens, UniProt Q5S007)
dephosphorylation of LRRK2 (Ser935): ~ 50%

Which dephosphorylation of LRRK2 (Ser935) is listed for Cc1ccc(S(=O)(=O)/C=C/C#N)cc1 [BAY 11-7082] ?
~ 50%

Which dephosphorylation of LRRK2 (Ser935) is listed for O=C(Nc1cccc(Nc2nccc(Nc3cccc(C(F)(F)F)c3)n2)c1)C1CC1 [Aurora kinase inhibitor III] ?
~ 50%

* * *

Biological target: LRRK2 phospho-Ser935 (Homo sapiens)
Construct: expressed in transfected cells
Test: Cellular LRRK2 phosphoserine 935 dephosphorylation spotblot assay in SH-SY5Y cells stably expressing 3xFlag-LRRK2
Type: cell-based
Conditions: pS935 level as % of control, 5 μM for 2 h, SH-SY5Y cells with stable expression of LRRK2
Cellular pS935 (% @ 5 μM) vs 60%: less than gives Y; not less than gives N.

structureNotation: CCCNC(=O)Nc1ccc(Oc2ncnc3cc(OC)c(OC)cc23)cc1Cl
testedOn: LRRK2 phospho-Ser935 (Homo sapiens)
classification: N

Does the reported Cellular pS935 (% @ 5 μM) of the following compound sit strictly below 60%? `Cc1cc(C)c(/C=C2\C(=O)Nc3ccccc32)[nH]1`
Y

Does the reported Cellular pS935 (% @ 5 μM) of the following compound sit strictly below 60%? `CCOc1cc2ncnc(Nc3cccc(Br)c3)c2cc1OCC`
N

* * *

Target: LRRK2 phospho-Ser935 (Homo sapiens, UniProt Q5S007)
Construct: expressed in transfected cells
Assay: Cellular LRRK2 phosphoserine 935 dephosphorylation spotblot assay in SH-SY5Y cells stably expressing 3xFlag-LRRK2
Assay type: cell-based
Conditions: @ 5 μM for 2 h; SH-SY5Y stably expressing LRRK2; pS935/total LRRK2
Each entry below lists one item and its recorded Phosphorylation level relative to solvent (%) (cellular pS935 assay) value.
Field format: number, assumed %, no unit text.

structureNotation: COc1cc2ncnc(Nc3cccc(Cl)c3)c2cc1OC
unitsText: %
quantitativeResult: 75.11

structureNotation: COc1ccc(-c2cnc3c(-c4ccsc4)cnn3c2)cc1
unitsText: %
quantitativeResult: 48.48

structureNotation: O=C1c2ccccc2-c2n[nH]c3cccc1c23
unitsText: %
quantitativeResult: 81.52

Which Phosphorylation level relative to solvent (%) (cellular pS935 assay) is listed for `COc1ccc(CNC(=O)Nc2ncc([N+](=O)[O-])s2)cc1` ?
115.21

Which Phosphorylation level relative to solvent (%) (cellular pS935 assay) is listed for `CC#CC(=O)Nc1cc2c(Nc3ccc(F)c(Cl)c3)ncnc2cn1` ?
69.18

* * *

Biological target: full length LRRK2 protein (Homo sapiens, UniProt Q5S007)
Construct: compounds were tested in triplicate with full length LRRK2 protein; made in house
Sequence (Q5S007 whole entry): as above
Assay: In vitro LRRKtide kinase assay with full length recombinant LRRK2, dose-response (IC50/pIC50)
Format: biochemical
Conditions: read-out: IC50 (LRRKtide phosphorylation assay)
assayReadout: IC50 (nM)
Field format: number, assumed nM, no unit text.

Given the entry `COc1cc(N2CCOCC2)ccc1Nc1ncc(F)c(Nc2ccccc2NS(C)(=O)=O)n1` , what IC50 was observed with full length LRRK2 protein (Homo sapiens, UniProt Q5S007)?
1.78

* * *

Target: LRRK2 phospho-Ser935 (Homo sapiens)
Construct: expressed in transfected cells
Assay: Cellular LRRK2 phosphoserine 935 dephosphorylation spotblot assay in SH-SY5Y cells stably expressing 3xFlag-LRRK2
Assay type: cell-based
Conditions: @ 5 μM for 2 h; SH-SY5Y stably expressing LRRK2; pS935/total LRRK2
assayReadout: Phosphorylation level relative to solvent (%) (cellular pS935 assay)
Field format: number, assumed %, no unit text.

Here are 2 compounds together with their reported answers.
compound: O=C1NC(=O)C(c2cn(CCCn3ccnc3)c3ccccc23)=C1Nc1ccccc1
quantitativeResult: 86.12
//
compound: NC(=O)Nc1sc(-c2ccc(F)cc2)cc1C(N)=O
quantitativeResult: 108.38

Which Phosphorylation level relative to solvent (%) (cellular pS935 assay) is listed for `COc1cc2c(cc1OC)-c1[nH]nc(Nc3cccc(F)c3)c1C2` ?
57.30

Which Phosphorylation level relative to solvent (%) (cellular pS935 assay) is listed for `Cc1ccc(S(=O)(=O)/C=C/C#N)cc1` ?
47.14

Which Phosphorylation level relative to solvent (%) (cellular pS935 assay) is listed for `CC(C)[C@H](CO)Nc1nc(Nc2cc(N)cc(Cl)c2)c2ncn(C(C)C)c2n1` ?
121.05

Which Phosphorylation level relative to solvent (%) (cellular pS935 assay) is listed for CN(C)CCCn1cc(C2=C(c3c[nH]c4ccccc34)C(=O)NC2=O)c2ccccc21 [Bisindolylmaleimide I] ?
73.14

Which Phosphorylation level relative to solvent (%) (cellular pS935 assay) is listed for `N#CCCc1ccc2c(c1)-c1[nH]c3ccc([N+](=O)[O-])cc3c1CC(=O)N2` ?
96.84

Which Phosphorylation level relative to solvent (%) (cellular pS935 assay) is listed for `Cc1nc2cc3nc(-c4cccs4)cnc3cc2n1C` ?
90.06

Which Phosphorylation level relative to solvent (%) (cellular pS935 assay) is listed for `O=C1Cc2c([nH]c3ccc(Br)cc23)-c2ccccc2N1` ?
94.10
